B1: APBB1IP (parent)
chain: FNYSVGFKDLNESLNALEDQDLDA

Variants of: B1
test: protein stability index of a GFP-peptide fusion (GPS, HEK-293T) (PSI 1-6); higher = more stable;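 also: lentivirally expressed fusions sorted by FACS into six bins by GFP to DsRed ratio, PSI derived from sequencing read proportions per bin multiplied by bin number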
condition_label: c terminus: a fixed tail appended
measurement_name: protein stability index
Output spec: single numeric token, no unit.

N11H
4.21

Return protein stability index (reported value) for this variant: `S4R` 4.82

Return protein stability index (reported value) for this variant: `V5H` 4.76

Return protein stability index (reported value) for this variant: `Q20A` 4.42

Return protein stability index (reported value) for this variant: `G6V` 2.55

Return protein stability index (reported value) for this variant: `Y3H` 4.07
